Target: T1, his-tagged human TIGIT (Acro Biosystems #TIT-H52H3) (human, UniProt Q495A1 22-141)
T1 construct: Bought protein; also called His-tagged-TIGIT (human); not shown: his tag
T1 sequence (looked up): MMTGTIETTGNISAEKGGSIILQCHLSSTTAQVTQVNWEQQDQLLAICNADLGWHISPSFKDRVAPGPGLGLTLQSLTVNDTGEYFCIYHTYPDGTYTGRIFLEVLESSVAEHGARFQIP
Assay: ELISA, coated His-TIGIT, 1 ug/ml
observation.type: Elisa OD450 (OD450)
Provide only the numeric value, understood in OD450.

Answered cases to consult:
43645p1.B8 (scFv, V domains shown) VH: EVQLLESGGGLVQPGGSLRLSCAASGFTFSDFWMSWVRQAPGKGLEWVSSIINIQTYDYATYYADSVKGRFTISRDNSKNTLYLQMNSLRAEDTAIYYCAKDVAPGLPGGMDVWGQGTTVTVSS VL: QSVLTQPPSASGTPGQRVTISCSGSNSNIRNNFVSWYQHLPGMAPKLLIYGNSQRPSGVPDRFSGSKSGTSASLAISGLQSEDEADYYCTSWDFSVNGWVFGGGTKLTVL: 1.76
43586p1.2.G10 (scFv, V domains shown) VH: EVQLLESGGGLVQPGGSLRLSCAASGFTFDDYVMSWVRQAPGKELEWVSLINWNGDKTCYADSVKGRFTISRDNSKNTLYLQMNSLRAEDTAIYYCAKHWIVFQYGMDVWGQGTTVTVSS VL: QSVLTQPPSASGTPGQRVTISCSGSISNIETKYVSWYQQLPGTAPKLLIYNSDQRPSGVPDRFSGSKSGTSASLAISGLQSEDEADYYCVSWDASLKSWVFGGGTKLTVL: 1.99

Please find the next binder below.
Query: Return value of Elisa OD450 for input 43645p1.C9 (scFv, V domains shown) VH: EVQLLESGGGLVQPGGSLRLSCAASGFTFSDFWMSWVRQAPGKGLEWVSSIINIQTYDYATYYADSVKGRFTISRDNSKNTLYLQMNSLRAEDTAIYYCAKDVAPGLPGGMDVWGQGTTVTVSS VL: QSVLTQPPSASGTPGQRVTISCSGSNSNIRNNFVSWYQHLPGTAPKLLIYGNSQRPSGVPDRFSGSKSGTSASLAISGLQSEDEADYYCTSWDFSVSGWVFGGGTKLTVL , no commentary.
Response: 1.86
